B1: INTS4 (parent)
chain: YSSGEFSSGRKWGDDAPKEEVDTG

Variants of: B1
Test Protocol: protein stability index of a GFP-peptide fusion (GPS, HEK-293T) (PSI 1-6); higher = more stable;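 further: lentivirally expressed fusions sorted by FACS into six bins by GFP to DsRed ratio, PSI derived from sequencing read proportions per bin multiplied by bin number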
Run Parameters: c terminus: a fixed tail appended

Mutation Label: A16G
protein stability index: 2.16

Mutation Label: T23S
protein stability index: 2.67

Mutation Label: K11N
protein stability index: 3.21

Mutation Label: W12H
protein stability index: 3.29
